B1: SMG5 (parent)
chain: FVSIAQSEQESLLQQAQAQFRMAQ

Variants of: B1
measurement-description: protein stability index of a GFP-peptide fusion (GPS, HEK-293T) (PSI 1-6); higher = more stable;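 further: lentivirally expressed fusions sorted by FACS into six bins by GFP to DsRed ratio, PSI derived from sequencing read proportions per bin multiplied by bin number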
test-conditions: c terminus: a fixed tail appended
measure: protein stability index

sequence-change: L12F
result: 2.02

sequence-change: Q15S
result: 2.27

sequence-change: R21T
result: 2.32

sequence-change: Q9P
result: 1.63

sequence-change: Q14D
result: 2.4

sequence-change: Q15V
result: 2.34

sequence-change: S7A
result: 2.38

sequence-change: Q19N
result: 1.97

sequence-change: Q17Y
result: 1.8

sequence-change: Q15C
result: 1.85

sequence-change: Q6T
result: 1.84

sequence-change: F1Q
result: 3.7

sequence-change: E10V
result: 2.85

sequence-change: Q15M
result: 2.12

sequence-change: E10H
result: 1.95

sequence-change: V2Y
result: 2.69

sequence-change: A18G
result: 1.89

sequence-change: Q17K
result: 2.33

sequence-change: F20A
result: 2.44

sequence-change: Q24A
result: 2.15

sequence-change: S3H
result: 1.74

sequence-change: Q14A
result: 2.11

From: the supplement of paper PMC10567573
